Molecular target: Neuraminidase (Influenza A virus (strain A/Wilson-Smith/1933 H1N1) (Influenza A virus(strain A/WS/1933 H1N1)))
Sequence (P03470 whole entry): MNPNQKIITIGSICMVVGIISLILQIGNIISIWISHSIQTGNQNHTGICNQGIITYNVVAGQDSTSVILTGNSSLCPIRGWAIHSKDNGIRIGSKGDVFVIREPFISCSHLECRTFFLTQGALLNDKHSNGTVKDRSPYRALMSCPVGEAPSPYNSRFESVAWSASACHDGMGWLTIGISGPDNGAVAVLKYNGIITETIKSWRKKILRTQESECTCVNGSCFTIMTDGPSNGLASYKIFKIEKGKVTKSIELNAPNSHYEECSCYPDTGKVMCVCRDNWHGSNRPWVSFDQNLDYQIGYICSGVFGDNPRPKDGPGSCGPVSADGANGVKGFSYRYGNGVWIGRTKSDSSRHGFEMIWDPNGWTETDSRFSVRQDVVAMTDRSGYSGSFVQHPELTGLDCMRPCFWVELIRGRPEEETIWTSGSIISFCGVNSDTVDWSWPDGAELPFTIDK
Assay: Inhibition of Influenza A virus A/WSN/1933(H1N1)) neuraminidase in the presence of 2'-(4-methyl-umbelliferyl)-alphaD-N-acetylneuraminic acid substrate after 10 mins by fluorometric assay
pIC50: −log10 of the molar value.
Parameter Measured: pIC50

## Input Which value of pIC50 has been reported for O=C(O)/C=C/c1ccc(O)c(O)c1 in the records?
## Output < 4.00

More entries:
## Input What value of pIC50 has been recorded for this entry: O=C(O)c1ccc2ccccc2c1O
## Output < 4.00

## Input Any idea what its pIC50 is? The compound is Nc1ccc(O)c(C(=O)O)c1
## Output < 4.00

Every entry's value here was drawn from ChEMBL document CHEMBL2203072.
